meta.source: patent US20230272055A1

Target: T1, human mutCALR on BaF3 cells stably expressing human MPL and human mutCALR (MPL-mutCALR cells) (human)
T1 construct: also called mutant calreticulin
T1 chain: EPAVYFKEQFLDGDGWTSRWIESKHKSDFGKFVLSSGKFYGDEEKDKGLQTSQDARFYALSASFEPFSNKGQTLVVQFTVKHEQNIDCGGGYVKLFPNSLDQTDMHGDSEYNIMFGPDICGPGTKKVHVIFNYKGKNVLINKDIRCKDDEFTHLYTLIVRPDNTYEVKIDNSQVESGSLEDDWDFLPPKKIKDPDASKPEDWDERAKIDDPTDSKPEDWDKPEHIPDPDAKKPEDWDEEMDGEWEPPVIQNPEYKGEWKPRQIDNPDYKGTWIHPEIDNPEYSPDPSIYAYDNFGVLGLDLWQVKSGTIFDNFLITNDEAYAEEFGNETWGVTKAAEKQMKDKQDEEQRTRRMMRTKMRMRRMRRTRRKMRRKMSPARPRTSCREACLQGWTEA
Assay: flow cytometry, BaF3 MPL-mutCALR cells
Would you mind telling me the reported EC50 of each entry?
Give the quantity in ng/mL, number only.

Item under review: anti-mutCALR antibody clone 177 (antibody, human IgG1, lambda, N297A, V domains shown) VH: EVQLVQSGAEVKKPGASVKVSCKVSGYTLTELSMQWVRQAPGKGLEWMGGFDPDSGETMYAEKFQGRLTVTEDTSTDTVYMELSSLRSEDTAVYFCATSPGYDFFDYWGQGTLVTVSS VL: SYVLTQPPSVSVAPGQTARITCGGSDIGDEIVHWYQQKPGQAPVLVVYDDSDRPSGIPERFSGSNSGNTATLTISRAQAGDEADYYCQVWDSSSDHLIFGGGTKLTVLG . Reported EC50?
3.4

Could you tell me which EC50 is on file for anti-mutCALR antibody clone 7 (antibody, human IgG1, lambda, V domains shown, human IgG1) VH: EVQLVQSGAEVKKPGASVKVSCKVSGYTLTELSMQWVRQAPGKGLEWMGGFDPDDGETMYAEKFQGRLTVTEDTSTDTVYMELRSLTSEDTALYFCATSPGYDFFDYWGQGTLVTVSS VL: SYVLTQPPSVSVAPGQTASITCVGTNFGSKNVHWYQQRPGQAPVLVVYDDSDRPSGIPERFSGSNSGNTATLTINRVEAGDEADYYCQVWDSSNDLLIFGGGTKLTVLG ?
190

Which EC50 reading was recorded for the binder anti-mutCALR antibody clone 68 (antibody, human IgG1, lambda, N297A, V domains shown) VH: EVQLVQSGAEVKKPGASVKVSCKVSGYTLTELSMQWVRQAPGKGLEWMGGFDPDEGETMYAEKFQGRLTVTEDTSTDTVYMELRSLTSEDTALYFCATSPGYDFFDYWGQGTLVTVSS VL: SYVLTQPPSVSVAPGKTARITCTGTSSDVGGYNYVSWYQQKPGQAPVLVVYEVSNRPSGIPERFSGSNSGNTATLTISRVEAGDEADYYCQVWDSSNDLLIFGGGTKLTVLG ?
3.3
